Biological target: GABA-A receptor; anion channel
Assay: Inhibition of GABA-A benzodiazepine receptor
measuredProperty: pIC50
The quantity pIC50 is defined as the negative base-10 logarithm of the molar concentration.

## Input Read off the recorded pIC50 for O=C1NC2CCCCCC2N1c1nc2cc(Cl)ccc2o1 (stereo unspecified)
## Output 6.85

----------
Recorded pKi for the following compounds
Target: GABA-A receptor; anion channel
Assay: Binding affinity against GABA-A benzodiazepine receptor
The quantity pKi is defined as the negative base-10 logarithm of the molar concentration.

## Input Read off the recorded pKi for `Oc1nc2ccccc2c2nc(-c3ccccc3)nn12`
## Output 8.40

----------
Biological target: GABA-A receptor; anion channel
Test: Binding affinity against GABA-A benzodiazepine receptor
pKi: −log10 of the molar value.
Binning scheme for pKi: low-valued (below 7), mid-valued (7 to below 8), high-valued (8 or more)

Consider the following illustrative entries.
compound	measuredTarget	className
Cn1c(=O)n(-c2nc3ccccc3o2)c2ccccc21	GABA-A receptor; anion channel	low-valued
O=C1NC2CCCCCC2N1c1nc2cccc(F)c2o1 (configuration not stated)	GABA-A receptor; anion channel	high-valued
Oc1nc2c(n1-c1nc3cccc(F)c3o1)CCCC2	GABA-A receptor; anion channel	mid-valued
O=C1NC2CCCCCC2N1c1nc2ccc(F)cc2o1 (configuration not stated)	GABA-A receptor; anion channel	high-valued
Oc1nc2cc(F)ccc2n1-c1nc2ccc(F)cc2o1	GABA-A receptor; anion channel	mid-valued

## Input // return the class label for O=C1NC2CCCCCC2N1c1nc2ccc(F)c(F)c2o1 (configuration not stated)
## Output high-valued

## Input // return the class label for `Oc1nc2ccccc2n1-c1nc2ccccc2s1`
## Output low-valued

## Input // return the class label for `Oc1nc2cccnc2n1-c1nc2ccccc2o1`
## Output low-valued
